The origin of these recorded values is PubChem BioAssay AID2241.

# test.protocol: caspase activation in A1-primed MEFs – cell-based, CaspaseGlo luminescence, A1 inhibitor project, primary screen (AID 2241);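 also: effector caspase 3 and 7 activity cleaving a DEVD luciferin substrate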
# condition.summary: MEF A1-2A-BIM cells, caspase-Glo luminescence, 3 h; percent of clofoctol signal, DMSO as zero; concentration not given here
Out of some 21,000 compounds screened, about 110 (0.52%) were called active.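 The calls were made as follows: active = most replicate scores above 10, or exactly half above 10 with mean activity above 10; inconclusive = mean activity below 10 while half the replicates exceed 10; inactive = most replicate scores below 10.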 The list comes from a sample in which actives are over-represented; it also holds close analogues and randomly drawn compounds.
Choose the fitting class; nothing outside active, inactive is accepted.

**Query** Which result was noted for this compound in the test: "C[C@@H]1CN([C@H](C)CO)C(=O)c2cc(NC(=O)C3CCCCC3)ccc2O[C@@H]1CN(C)CC1CCCCC1"
**Result** inactive

**Query** Called result for "CCc1ccccc1NC(=O)c1ccc2snnc2c1"
**Result** inactive

**Query** GET /call?item= "CCOC(=O)c1cc(-c2ccccc2)n(-c2ccccc2C)n1" returns the recorded outcome of this test.
**Result** inactive

**Query** Answer briefly: the call reported for "O=C(NCc1ccc2c(c1)OCO2)c1sc(=S)n2c1[nH]c(=O)c1ccccc12" in this assay.
**Result** inactive

**Query** Any idea what this test logged for "CCOC(=O)c1cc(=O)c2ccc(OCc3ccccc3)cc2o1" ?
**Result** inactive

**Query** Query: recorded result category for OCCN1N=C2c3ccccc3CCC2C1c1ccccc1Cl (centres undefined) in this test
**Result** inactive

**Query** Hi team, can someone confirm the assay call for "Clc1ccc(N2CCCCCCC2)nn1" ?
**Result** inactive

**Query** Each compound tested received a call. Report the one for "COc1cc(OC)cc(C(=O)N2CCN=C2c2ccccc2)c1" .
**Result** inactive

**Query** Which outcome was entered for the compound "O=C(Nc1cccc(-c2nc3ccccc3o2)c1)c1cccc(OCc2ccccc2)c1" in this test?
**Result** active

**Query** Field: outcome | Entry: "COc1ccc(S(=O)(=O)Nc2ccc3c(c2)C(=O)N([C@H](C)CO)C[C@H](C)[C@H](CN(C)S(=O)(=O)c2ccc(Cl)cc2)O3)cc1"
**Result** inactive

**Query** For "O=C(Nc1cccc(-c2nc3ccccc3o2)c1)c1ccc(Br)cc1" , what call appears in the results of this test?
**Result** active

**Query** Tell me the assay call for "Nc1c(C(=O)N2CCCCC2)sc2nc3c(cc12)CCC3" please.
**Result** inactive

**Query** Recorded test outcome, item "Cc1ccc(-c2nn(C(C)(C)C)c3ncnc(N)c23)cc1"
**Result** active

**Query** // outcome(item) with item = "O=C(CSc1nc2ccccc2o1)Nc1ccccn1"
**Result** inactive

**Query** Assay result, entry "C[C@H]1CN([C@@H](C)CO)C(=O)c2cc(NC(=O)CCC(F)(F)F)ccc2O[C@H]1CN(C)Cc1ccc(C(=O)O)cc1" — outcome?
**Result** inactive

**Query** Tell me the assay call for "Cc1ccc(S(=O)(=O)Nc2ccc3c(c2)C(=O)N([C@@H](C)CO)C[C@@H](C)[C@@H](CN(C)Cc2ccncc2)O3)cc1" please.
**Result** inactive

**Query** In this assay, the call recorded for "Cc1ccc(-n2c(C)cc(C=C3C(=O)c4ccccc4C3=O)c2C)cc1" was what?
**Result** inactive

**Query** What was the test verdict on "O=C(COC(=O)c1cc2ccccc2oc1=O)c1ccccc1" ?
**Result** inactive

**Query** What is the recorded call for this compound in the test? "C[C@H](CO)N1C[C@H](C)[C@H](CN(C)S(=O)(=O)c2cn(C)cn2)Oc2ccc(NS(=O)(=O)c3ccccc3)cc2C1=O"
**Result** inactive
